- Assay: Selectivity index, ratio of IC50 for human HepG2 cells to IC50 for CQ, MFQ-resistant Plasmodium falciparum TM91C235 clone Southeast asian isolate
- Assay type: toxicity, cell-based
- Condition Description: read-out: Ratio IC50
Below is a list of entries, each paired with its recorded selectivity ratio value.
Just the number.

// below: answered molecules
>  <Smiles Input>
CC(=O)O[C@H]1C[C@H]2[C@@H]([C@H](OC(C)=O)C[C@@H]3CC(=O)CC[C@@]32C)[C@@H]2CC[C@H]([C@H](C)CCCNCCNc3ccnc4cc(Cl)ccc34)[C@@]12C

>  <Assay Readout>
selectivity ratio

>  <Numeric Value>
109

$$$$
>  <Smiles Input>
CC(=O)O[C@H]1C[C@H]2[C@@H]([C@H](OC(C)=O)C[C@@H]3C[C@H](O)CC[C@@]32C)[C@@H]2CC[C@H]([C@H](C)CCCNCCCCCCNc3ccnc4cc(Cl)ccc34)[C@@]12C

>  <Assay Readout>
selectivity ratio

>  <Numeric Value>
50

$$$$
>  <Smiles Input>
CC(=O)O[C@H]1C[C@H]2[C@@H]([C@H](OC(C)=O)C[C@@H]3C[C@H](NS(C)(=O)=O)CC[C@@]32C)[C@@H]2CC[C@H]([C@H](C)CCCNCCCNc3ccnc4cc(Cl)ccc34)[C@@]12C

>  <Assay Readout>
selectivity ratio

>  <Numeric Value>
147

$$$$
>  <Smiles Input>
CC(=O)O[C@@H]1CC[C@@]2(C)[C@@H](C1)C[C@@H](OC(C)=O)[C@@H]1[C@@H]2C[C@H](OC(C)=O)[C@]2(C)[C@@H]([C@H](C)CCCNCCCCCCNc3ccnc4cc(Cl)ccc34)CC[C@@H]12

>  <Assay Readout>
selectivity ratio

>  <Numeric Value>
25

$$$$
>  <Smiles Input>
CC(=O)O[C@H]1C[C@H]2[C@@H]([C@H](OC(C)=O)C[C@@H]3C[C@H](N(C)C)CC[C@@]32C)[C@@H]2CC[C@H]([C@H](C)CCCNCCNc3ccnc4cc(Cl)ccc34)[C@@]12C

>  <Assay Readout>
selectivity ratio

>  <Numeric Value>
435

$$$$
>  <Smiles Input>
CC(=O)O[C@H]1C[C@H]2[C@@H]([C@H](OC(C)=O)C[C@@H]3C[C@H](N(C)C)CC[C@@]32C)[C@@H]2CC[C@H]([C@H](C)CCCNCCCNc3ccnc4cc(Cl)ccc34)[C@@]12C

>  <Assay Readout>
selectivity ratio

>  <Numeric Value>
156

$$$$

Value of selectivity ratio reported for the molecule CC(=O)N[C@@H]1CC[C@@]2(C)[C@@H](C1)C[C@@H](OC(C)=O)[C@@H]1[C@@H]2C[C@H](OC(C)=O)[C@]2(C)[C@@H]([C@H](C)CCCNCCCNc3ccnc4cc(Cl)ccc34)CC[C@@H]12 is 51

Value of selectivity ratio reported for the molecule CC(=O)N[C@@H]1CC[C@@]2(C)[C@@H](C1)C[C@@H](OC(C)=O)[C@@H]1[C@@H]2C[C@H](OC(C)=O)[C@]2(C)[C@@H]([C@H](C)CCCNCCNc3ccnc4cc(Cl)ccc34)CC[C@@H]12 is 126

Value of selectivity ratio reported for the molecule CC(=O)O[C@H]1C[C@H]2[C@@H]([C@H](OC(C)=O)C[C@@H]3CC(=O)CC[C@@]32C)[C@@H]2CC[C@H]([C@H](C)CCCNCCCCNc3ccnc4cc(Cl)ccc34)[C@@]12C is 6

Value of selectivity ratio reported for the molecule CC(=O)O[C@H]1C[C@H]2[C@@H]([C@H](OC(C)=O)C[C@@H]3C[C@H](O)CC[C@@]32C)[C@@H]2CC[C@H]([C@H](C)CCCNCCCCNc3ccnc4cc(Cl)ccc34)[C@@]12C is 28
